Test system: TK-10 renal
measurement description: NCI tumour cell line growth inhibition, 48 h; in the data active means GI50 below about 0.43 µM; inactive means the rest
Tick one outcome: t for active, f for inactive

Here are 5 compounds together with their reported answers.
{"compound": "COc1ccc(C=Nc2c(C(=O)Nc3cccc(Cl)c3C)sc3nc(C)c(C(=O)/C=C/c4ccc(OC)cc4)cc23)cc1", "class assignment": "f"}
{"compound": "COc1cc(C(=O)O[C@H](C(=O)NCCCNC(=O)[C@@H](OC(=O)c2cc(OC)cc3c(C)cccc23)[C@]2(C)CO2)[C@]2(C)CO2)c2cccc(C)c2c1", "class assignment": "t"}
{"compound": "CCC[CH2][Sn]([CH2]CCC)([O]c1cccc2cccnc12)[O]c1cccc2cccnc12", "class assignment": "f"}
{"compound": "COc1ccc2c(c1)c(-c1nc(-c3c[nH]c4ncccc34)cs1)cn2CCCN1CCCCC1", "class assignment": "f"}
{"compound": "Cc1c(-c2ccc(C3CCCCC3)cc2)nc2ccc(F)cc2c1C(=O)O", "class assignment": "f"}

Challenge: Lab log entry: "COc1cc(OC)cc(-c2ccc(-c3ccc(C(=N)N)cn3)o2)c1" — outcome as called in the assay?
Response given: f

---

System: CAKI-1 renal
measurement description: NCI tumour cell line growth inhibition, 48 h
Item-by-item account of TGI
State the answer as a number, implicitly in µM.

{"compound": "c1cc(-c2ccc(-c3ccc(-c4ccc(-c5ccncc5)o4)cc3)o2)ccn1", "TGI / µM": 46.7}

Challenge: Field: TGI (CAKI-1 renal). Entry: "O=c1[nH]c2ccccc2c2nc3ccccc3n12"
Response given: 93.7

Challenge: Field: TGI (CAKI-1 renal). Entry: "O=C(Cc1ccccc1F)NC1=C(Cl)C(=O)c2ccccc2C1=O"
Response given: 9.42

Challenge: Field: TGI (CAKI-1 renal). Entry: O=C(CC1(O)C(=O)N(Cc2ccccc2)c2ccc(Cl)cc21)c1ccc(C(=O)NCC2CCC3(CC2)OOC2(CCCCC2)OO3)cc1 (stereo not given)
Response given: 0.864

Challenge: Field: TGI (CAKI-1 renal). Entry: "Cc1cccc(-n2c(N)c(-c3nc4ccccc4[nH]3)sc2=S)c1"
Response given: 90.5

---

System: A549 NSCLC
measurement description: NCI tumour cell line growth inhibition, 48 h
Item-by-item account of GI50

{"molecule": "CN(C)c1ccc(/C=C/c2ccc(S(N)(=O)=O)cc2)cc1", "GI50": "10100 nM"}
{"molecule": "COc1ccc(C#Cc2ccc(=O)oc2-c2cc(OC)c(OC)c(OC)c2)cc1O", "GI50": "7080 nM"}
{"molecule": "COc1cc(OC)cc(-c2ccc(-c3ccc(C(=N)N)cn3)o2)c1", "GI50": "1860 nM"}
{"molecule": "COc1cc(C2CC(c3cccc(Nc4ccnc5cc(Cl)ccc45)c3)=NN2c2ccc(Cl)cc2)cc(OC)c1OC (stereo not given)", "GI50": "2720 nM"}
{"molecule": "NCCc1ccc(S(=O)(=O)F)cc1", "GI50": "> 100000 nM"}
{"molecule": "Cc1nc2c(c(N3CCCc4ccccc43)n1)CCC2", "GI50": "< 10 nM"}
{"molecule": "CN(C)CCCN(CCC1CCCCC1)CCC1CCCCC1", "GI50": "2690 nM"}
{"molecule": "NC(=NCc1ccccc1)C(N=Nc1ccccc1)C(=O)NCc1ccccc1 (stereo not given)", "GI50": "3050 nM"}

Challenge: Bench note: what GI50 did "O=C(Nc1ccc(Cc2ccccc2)cc1)Nc1nn(C(=O)Nc2ccc(Cc3ccccc3)cc2)c2ccccc12" show?
Response given: > 100000 nM

Challenge: Bench note: what GI50 did "COc1ccc(/C=C2\CN(C(=O)C(Cl)Cl)C/C(=C\c3ccc(OC)cc3)C2=O)cc1" show?
Response given: 2570 nM

---

Item-by-item account of TGI
Test system: SR leukemia
measurement description: NCI tumour cell line growth inhibition, 48 h

Challenge: Field: TGI (SR leukemia). Entry: "CCCCn1c(CSc2ccc(Cl)cc2)c(C(=O)OCC)c2cc(OC)c(Br)cc21"
Response given: > 100 µM

Challenge: Field: TGI (SR leukemia). Entry: CSC1(C)C(=O)Nc2c(OCc3ccccc3)cc([N+](=O)[O-])cc21 (stereo unspecified)
Response given: > 100 µM

Challenge: Field: TGI (SR leukemia). Entry: "COC(=O)c1ccccc1N(C(=O)c1ccccc1)c1ccccc1C"
Response given: 99.4 µM

Challenge: Field: TGI (SR leukemia). Entry: "COC(=O)c1ccc2c(c1)C(=O)c1c-2n(CCCCl)c(=O)c2cc([N+](=O)[O-])ccc12"
Response given: > 100 µM

Challenge: Field: TGI (SR leukemia). Entry: CC1CN=C(NS(=O)(=O)c2cc(C(=O)Nc3ccc(Cl)cc3)c(Cl)cc2S)NN1 (stereo unspecified)
Response given: > 100 µM

---

Test system: HT29 colon
measurement description: NCI tumour cell line growth inhibition, 48 h
assay readout: TGI

Record excerpt, results attached:
{"compound": "O=C(/C=C\\c1cccc2ccccc12)c1ccc(F)cc1", "TGI": "36.6 µM"}
{"compound": "COc1cc(C)c(/C=C2/N=C(c3ccccc3)OC2=O)c([N+](=O)[O-])c1OC", "TGI": "> 100 µM"}
{"compound": "Oc1ccc([C@H]2c3c(O)cc(O)cc3C3c4c(cc(O)cc4[C@@H]2[C@H]2c4cc(O)cc5c4C(c4cc(O)cc(O)c4[C@@H]2c2ccc(O)cc2)[C@@H](c2ccc(O)cc2)O5)O[C@@H]3c2ccc(O)cc2)cc1 (stereo partly drawn)", "TGI": "> 100 µM"}
{"compound": "O=[N+]([O-])C(/C=C(\\Cl)[N+](=O)[O-])=C1Nc2ccccc2N1", "TGI": "> 100 µM"}
{"compound": "COc1nc2cccc(C(O)c3ccccc3)c2nc1-c1ccccc1 (stereo not drawn)", "TGI": "72.4 µM"}

Challenge: Bench note: what TGI did "C=C1C(=O)O[C@H]2[C@H]1CC/C(COC(=O)NCc1c[nH]c3ccccc13)=C\CC[C@@]1(C)O[C@@H]21" show?
Response given: 9.69 µM

Challenge: Bench note: what TGI did "CC(=O)Oc1cc(S(=O)(=O)Nc2n[nH]c(Nc3ccc(C)cc3)n2)c(S)cc1Cl" show?
Response given: > 100 µM

Challenge: Bench note: what TGI did "NCCc1ccc(S(=O)(=O)F)cc1" show?
Response given: > 100 µM

Challenge: Bench note: what TGI did O=C1C=CC2OC(c3ccccc3)C(O)C2O1 (stereo not drawn) show?
Response given: 35.2 µM

Challenge: Bench note: what TGI did "O=C(O)C[C@@H](Cl)[C@H](NC(=O)OCc1ccccc1)C(=O)O" show?
Response given: > 100 µM

---

Item-by-item account of TGI
System: CAKI-1 renal
measurement description: NCI tumour cell line growth inhibition, 48 h
State the answer as a number, implicitly in µM.

Record excerpt, results attached:
{"sample smiles": "CCOC(=O)/C=C(\\C(=O)OCC)n1ccc(=O)n(Cc2cnnn2CCCCOC(C)=O)c1=O", "reading": 6.8}
{"sample smiles": "COCCN(CCNC(=O)c1cccc2c(N)c3cccc(C)c3nc12)CCOC", "reading": 4.49}

Would you kindly look at the next entry?
Challenge: Bench note: what TGI did "CC1(C)[C@@H]2CC[C@]1(C)[C@H](OC(=O)/C=C/c1ccccc1)C2" show?
Response given: 38

---

Item-by-item account of GI50
Test system: SNB-19 CNS
measurement description: NCI tumour cell line growth inhibition, 48 h

Record excerpt, results attached:
{"compound": "C=C1C(=O)O[C@H]2[C@H]1CC/C(COC(=O)NCc1c[nH]c3ccccc13)=C\\CC[C@@]1(C)O[C@@H]21", "GI50": "10.6 µM"}
{"compound": "COC(=O)C1=C(O)[C@H](C(=O)OC)C2(O)C(C(=O)OC)[C@H](c3ccc(OC(=O)C(C)c4ccccc4)cc3)C[C@@H]1[C@@H]2C(=O)OC (stereo partly drawn)", "GI50": "23.7 µM"}
{"compound": "NC(=NCc1ccccc1)C(N=Nc1ccccc1)C(=O)NCc1ccccc1 (stereo not drawn)", "GI50": "13.2 µM"}

Challenge: Bench note: what GI50 did "C=C(CN1CCN(c2ccc(C(F)(F)F)cc2)CC1)c1ccc(C(=O)Nc2ccccc2N)cc1" show?
Response given: 12.5 µM

---

Test system: A549 NSCLC
measurement description: NCI tumour cell line growth inhibition, 48 h
Item-by-item account of TGI

Record excerpt, results attached:
{"molecule": "Clc1cccc(-c2sc(-c3ccsc3)cc2Cc2ccsc2)c1", "reading": "> 10 µM"}
{"molecule": "O=c1[nH]nc(NCc2ccccc2)c2nnn(Cc3ccccc3)c12", "reading": "> 100 µM"}
{"molecule": "CN(C)CCCN(CCC1CCCCC1)CCC1CCCCC1", "reading": "8.5 µM"}

Would you kindly look at the next entry?
Challenge: Field: TGI (A549 NSCLC). Entry: "S=C(N/N=C(\c1ccccc1)c1ccccn1)NC1CCCCC1"
Response given: > 100 µM
